target: human recombinant mGluR5 (Homo sapiens, UniProt P41594); test: positive modulation of mGluR5, calcium based FLIPR assay; details: HEK 293 cell line expressing human recombinant mGluR5; EC50 of the modulation from peak Ca fluorescence signal after glutamate at approx. 5% basal stimulation
Sequence (P41594 21-1212): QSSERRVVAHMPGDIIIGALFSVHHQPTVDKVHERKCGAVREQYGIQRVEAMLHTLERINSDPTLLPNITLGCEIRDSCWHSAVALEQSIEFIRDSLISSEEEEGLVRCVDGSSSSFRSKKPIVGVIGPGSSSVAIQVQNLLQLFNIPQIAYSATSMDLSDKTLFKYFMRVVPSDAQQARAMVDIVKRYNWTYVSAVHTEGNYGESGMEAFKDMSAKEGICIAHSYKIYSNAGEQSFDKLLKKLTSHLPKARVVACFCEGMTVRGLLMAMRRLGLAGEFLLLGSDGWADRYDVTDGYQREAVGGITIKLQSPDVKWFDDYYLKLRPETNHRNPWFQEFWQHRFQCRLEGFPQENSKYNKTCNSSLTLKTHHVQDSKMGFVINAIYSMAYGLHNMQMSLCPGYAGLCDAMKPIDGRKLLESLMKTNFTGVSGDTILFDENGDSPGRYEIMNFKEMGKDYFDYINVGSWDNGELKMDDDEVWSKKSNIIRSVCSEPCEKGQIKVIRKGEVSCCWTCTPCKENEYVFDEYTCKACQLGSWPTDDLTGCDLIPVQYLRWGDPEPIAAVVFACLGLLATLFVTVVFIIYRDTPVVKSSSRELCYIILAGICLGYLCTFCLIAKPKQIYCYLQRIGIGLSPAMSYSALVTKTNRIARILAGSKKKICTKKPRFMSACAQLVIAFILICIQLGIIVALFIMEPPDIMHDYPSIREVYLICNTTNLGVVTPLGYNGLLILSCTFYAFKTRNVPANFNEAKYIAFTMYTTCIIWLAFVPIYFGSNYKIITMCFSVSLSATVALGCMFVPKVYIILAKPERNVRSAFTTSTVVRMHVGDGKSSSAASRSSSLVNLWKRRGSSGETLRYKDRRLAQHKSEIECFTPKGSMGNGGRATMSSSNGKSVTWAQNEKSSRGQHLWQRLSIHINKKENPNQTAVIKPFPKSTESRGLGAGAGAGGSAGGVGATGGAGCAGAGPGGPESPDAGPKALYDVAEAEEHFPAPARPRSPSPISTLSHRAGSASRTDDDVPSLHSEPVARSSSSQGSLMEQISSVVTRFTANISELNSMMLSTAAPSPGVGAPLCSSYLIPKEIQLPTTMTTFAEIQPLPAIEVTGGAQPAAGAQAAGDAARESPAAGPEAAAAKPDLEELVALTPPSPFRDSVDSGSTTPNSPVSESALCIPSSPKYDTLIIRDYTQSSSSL
Assign pEC50 to each entry below.
Answers are plain numbers, as −log10 of the molar value.

Some compounds with recorded pEC50:
compound	pEC50
CCc1cc(-c2ccc(C)c(C)c2)nn1CC(=O)N1CC=C(c2cc(OC)ncn2)CC1 [Example 7.02.078]	6.63
CC(C)c1cc(-c2ccc(F)cc2)nn1CC(=O)N1CCc2nc(N)sc2CC1 [Example 7.02.073]	6.20
Cc1nc2c(s1)CCN(C(=O)Cn1nc(-c3ccc(OC(F)F)cn3)cc1-c1ccccc1)CC2 [Example 7.02.236]	7.16
Cc1nc2c(s1)CN(C(=O)Cn1nc(-c3ccc(F)cn3)cc1-c1ccc(F)cc1)C2 [Example 7.02.059]	6.54
Cc1cc(-c2cc(-c3ccccc3)n(CC(=O)N3CC=C(c4ncc(F)cn4)CC3)n2)ccc1F [Example 7.02.099]	7.74

Respectfully, I request pEC50 for each entry included below.
1. COc1ccc(-c2cc(-c3ccccc3)n(CC(=O)N3CCN(c4noc(C)n4)CC3)n2)cc1C [Example 7.02.232]
2. Cc1cccc(-c2cc(-c3ccccc3)n(CC(=O)N3CCc4nc(C)sc4CC3)n2)c1 [Example 7.02.198]

1. 6.98
2. 8.22
